target.entity: human GlyT1c transporter (Homo sapiens, UniProt P48067)
Sequence (P48067 whole entry): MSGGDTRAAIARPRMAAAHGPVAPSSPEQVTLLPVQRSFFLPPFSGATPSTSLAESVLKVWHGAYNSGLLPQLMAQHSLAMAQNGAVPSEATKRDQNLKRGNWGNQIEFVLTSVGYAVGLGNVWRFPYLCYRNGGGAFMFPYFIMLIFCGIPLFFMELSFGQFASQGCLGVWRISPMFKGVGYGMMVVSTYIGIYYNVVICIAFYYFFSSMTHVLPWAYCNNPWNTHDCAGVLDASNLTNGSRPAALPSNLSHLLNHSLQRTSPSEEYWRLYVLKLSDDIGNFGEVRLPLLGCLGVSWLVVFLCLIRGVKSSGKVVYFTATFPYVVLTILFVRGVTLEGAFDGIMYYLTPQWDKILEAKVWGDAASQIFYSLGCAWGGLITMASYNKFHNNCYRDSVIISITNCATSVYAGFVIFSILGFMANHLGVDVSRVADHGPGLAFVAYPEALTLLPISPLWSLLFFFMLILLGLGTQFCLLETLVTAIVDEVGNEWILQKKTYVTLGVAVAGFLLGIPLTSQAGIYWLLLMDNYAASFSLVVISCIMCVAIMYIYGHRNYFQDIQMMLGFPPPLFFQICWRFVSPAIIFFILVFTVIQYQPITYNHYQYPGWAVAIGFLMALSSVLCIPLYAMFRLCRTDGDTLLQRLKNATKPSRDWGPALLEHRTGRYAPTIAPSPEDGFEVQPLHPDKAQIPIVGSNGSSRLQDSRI
measurement.protocol: [3H]-(R)-NPTS radioligand binding assay using recombinant hGlyT1 expressing cell membranes
measurement.context: 0.5 nM [3H]-(R)-NPTS, apparent Ki via Cheng-Prusoff, read-out: [3H]-(R)-NPTS bindung Ki
Structures can show the parent of a compound that is named as a salt.
I'd appreciate it if you could supply Ki values for the items below.

[
  {
    "compound": "Cc1cc(NCc2ccc(Cl)c(Cl)c2)c2cccc(OCCNS(C)(=O)=O)c2n1",
    "Ki": "≤ 10 nM"
  },
  {
    "compound": "CCCOc1cccc2c(NCc3ccc(Cl)c(Cl)c3)cc(C)nc12",
    "Ki": "≤ 100 nM"
  },
  {
    "compound": "Cc1cc(NCc2ccc(Cl)c(Cl)c2)c2cccc(OCCNS(=O)(=O)c3ccccc3)c2n1 [Example 23, hydrochloride]",
    "Ki": "≤ 10 nM"
  },
  {
    "compound": "COc1cccc2c(NC(c3ccncc3)c3ccc(Cl)cc3)cc(C)nc12 (stereo not drawn)",
    "Ki": "≤ 1000 nM"
  },
  {
    "compound": "Cc1cc(NCc2cccc(Cl)c2Cl)c2ccccc2n1",
    "Ki": "≤ 10000 nM"
  }
]

Dear colleague, could you send me Ki for each of the items below? Thanks.
1. Cc1cc(NCc2ccc(Cl)c(Cl)c2)c2cccc(S(N)(=O)=O)c2n1
2. CC(=O)Nc1cccc2c(NCc3ccc(Cl)c(Cl)c3)cc(C)nc12
3. COc1cccc2c(NC(c3ccc(Cl)cc3)c3nccn3C)cc(C)nc12 (stereo not drawn)
4. COc1cccc2c(NC(CN3CCCCC3)c3ccccc3)cc(C)nc12 (stereo not drawn)

Marked response:
1: ≤ 1000 nM; 2: ≤ 1000 nM; 3: ≤ 10000 nM; 4: ≤ 10000 nM
